Experiment: Half-life after administration of 20 mg/Kg oral dose in rat
Type: ADME, organism-based
Conditions: in vivo
quantity_name: half-life

Incoming: # input compound: CO/N=C1\CN(c2c(F)cc3c(=O)c(C(=O)O)cn(C4CC4)c3c2F)CC1N (stereo unspecified) ; wanted: its half-life
Outgoing: 5.18 h

----------
Property: Tmax; scope: individual compounds
Assay: Tmax value after administration of 4 mg/Kg oral dose in dog
Type: ADME, organism-based, Canis lupus familiaris
Conditions: in vivo
Response body: numeric value in min, unit text excluded.

Incoming: # input compound: CO/N=C1\CN(c2c(F)cc3c(=O)c(C(=O)O)cn(C4CC4)c3c2F)CC1N (configuration not stated) ; wanted: its Tmax
Outgoing: 13.8

Incoming: # input compound: O=C(O)c1cn(C2CC2)c2cc(N3CCNCC3)c(F)cc2c1=O ; wanted: its Tmax
Outgoing: 67.2
